Origin of measurements: patent US20120040951A1

# Tested on: phospho-ERK in melanoma derived WM-266-4 cells
# assay method text: Mechanistic cellular assay for Raf kinase activity (phospho-ERK, Bio-Plex)
# Assay type: cell-based
# test settings: Homo sapiens, treated 1-2 hr at 37° C., serum free medium, read-out: pERK EC50
pEC50: −log10 of the molar value.
observation type: pEC50

[in] Fill in the blank: the reported pEC50 of C[C@@H](NC(=O)c1cc2c(cn1)ncn2C)c1cnc(Nc2ccc(C(F)(F)F)cc2)cn1 (single isomer, unassigned) [Example 37] is ____.
[out] ≥ 7.00

[in] Fill in the blank: the reported pEC50 of CCn1ncc(C(=O)N[C@H](C)c2ncc(C(=O)Nc3cc(C(F)(F)F)c(Cl)cn3)s2)c1C [Example 126] is ____.
[out] ≥ 7.00

[in] Fill in the blank: the reported pEC50 of CC(NC(=O)c1cn2c(NC(C)(C)CC(C)(C)C)cnc2cn1)c1ncc(Nc2ccc(C(F)(F)F)cc2)s1 (stereo not shown) [Example 301] is ____.
[out] 5.00 to 6.00

[in] Fill in the blank: the reported pEC50 of C[C@@H](NC(=O)c1cnc2n1CCN2C)c1ncc(C(=O)Nc2cc(C(F)(F)F)c(Cl)cn2)s1 [Example 172] is ____.
[out] 6.00 to 7.00

[in] Fill in the blank: the reported pEC50 of C[C@@H](NC(=O)c1cc2c(cn1)ncn2C)c1cnc(Nc2ccc(C(F)(F)F)cc2)s1 [Example 4] is ____.
[out] ≥ 7.00

[in] Fill in the blank: the reported pEC50 of C[C@@H](NC(=O)c1ccc2c(c1)OCCN2C)c1ncc(C(=O)Nc2cc(C(F)(F)F)c(Cl)cn2)s1 [Example 71] is ____.
[out] 5.00 to 6.00

[in] Fill in the blank: the reported pEC50 of C[C@@H](NC(=O)c1ccc2[nH]nnc2c1)c1ncc(C(=O)Nc2cc(C(F)(F)F)c(Cl)cn2)s1 [Example 57] is ____.
[out] 5.00 to 6.00
